Target: T1, Recombinant human CD123 SP2 ECD protein (human, UniProt P26951 101-303)
T1 construct: also called rhCD123 SP2; CD123 ECD SP2
T1 sequence: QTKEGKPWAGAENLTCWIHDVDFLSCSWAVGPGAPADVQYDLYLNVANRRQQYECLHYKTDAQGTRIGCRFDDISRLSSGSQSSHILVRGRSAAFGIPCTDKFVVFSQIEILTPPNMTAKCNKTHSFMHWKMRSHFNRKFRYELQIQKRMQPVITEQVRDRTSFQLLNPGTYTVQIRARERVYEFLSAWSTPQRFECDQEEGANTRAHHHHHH
Experiment: SPR ProteOn, captured mAb
Measurement Kind: kon (M⁻¹ s⁻¹)
API: value field is a number in M⁻¹ s⁻¹; no unit string.

1) I3RB2 (antibody, IgG1, V domains shown, IgG1; also called I3RB02; 13RB2) VH: EVQLLESGGGLVQPGGSLRLSCAASGFTFSGYWMHWVRQAPGKGLEWVSAIRSDGSSKYYADSVKGRFTISRDNSKNTLYLQMNSLRAEDTAVYYCAKDGVIEDTFDYWGQGTLVTVSS VL: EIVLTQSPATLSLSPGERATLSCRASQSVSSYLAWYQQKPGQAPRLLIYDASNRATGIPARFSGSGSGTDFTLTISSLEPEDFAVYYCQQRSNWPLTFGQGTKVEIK | 1.81e+06
2) I3RB18 (antibody, IgG1, V domains shown, IgG1; also called 13RB18; mAb I3RB18) VH: EVQLVQSGAEVKKPGESLKISCKGSGYSFTSYWISWVRQMPGKGLEWMGIIDPSDSDTRYSPSFQGQVTISADKSISTAYLQWSSLKASDTAMYYCARGDGSTDLDYWGQGTLVTVSS VL: EIVLTQSPGTLSLSPGERATLSCRASQSVSSSYLAWYQQKPGQAPRLLIYGASSRATGIPDRFSGSGSGTDFTLTISRLEPEDFAVYYCQQDYGFPWTFGQGTKVEIK | 2.69e+06

# evaluate next
q: Give the measured kon of I3RB30 (antibody, IgG1, V domains shown, IgG1; also called 13RB30) VH: QVQLVQSGAEVKKPGSSVKVSCKASGGTFSSYAISWVRQAPGQGLEWMGWIIPIFGTANYAQKFQGRVTITADESTSTAYMELSSLRSEDTAVYYCARLVYSSDFDYWGQGTLVTVSS VL: EIVLTQSPATLSLSPGERATLSCRASQSVANWLAWYQQKPGQAPRLLIYYASNRATGIPARFSGSGSGTDFTLTISSLEPEDFAVYYCQQYDGWPRTFGQGTKVEIK .
a: 145000
